# Tested on: TO-3-N3 (biotin conjugate)
# assay_text: pull-down binding Z-score (relative to library population); higher = stronger binding
# conditions_used: RNA library: Library-2
Quick reference for pull-down binding Z-score among some sequences
Keep the answer to the number alone.

UGAUAAAUUCA [SHAPE_invivo_SARS-CoV-2_Motif_325]	-0.376
UCCAGGCAUCUGUGUCUG [hsa-mir-4669]	1.48

Continue with the next sequence.
Value of measured pull-down binding Z-score for the entry GGAAUAAGUAUGAUACUUACCUG [U1snRNP5ss-6] : 1.69

###

# Tested on: TO-3-N3 (biotin conjugate)
# assay_text: pull-down binding Z-score (relative to library population); higher = stronger binding
# conditions_used: RNA library: Library-2
measured_attribute: pull-down binding Z-score
Keep the answer to the number alone.

Below, each entry is followed by its recorded pull-down binding Z-score result.
GGAGGCAUGAAUGAGCCAUCUUUCCAAUGCCUUUC [hsa-mir-4743]	-0.573
ACGAUAUAGGUAUGUAUGUAUGUAUGUAUAAAAGCAGGGCAGUAUAUAUAUCGU [hsa-mir-4536-2]	0.847
GCUUUUCACCUGUGAUCCCAGGAGAGGAAGC [hsa-mir-646]	-0.299

Continue with the next sequence.
Value of measured pull-down binding Z-score for the entry CUUGAACAAUGGAACCUAGUAAUAGGUUUCCUAUUCCUUACAUGGAUUUGUCUUCUACAAUUUGCCUAUGCCAACAGG : -0.5

###

# Test system: TO-N3 (biotin conjugate)
# assay_text: pull-down binding Z-score (relative to library population); higher = stronger binding
# conditions_used: RNA library: Library-2
Lab note: class by pull-down binding Z-score, see low range (below -0.4), mid range (-0.4 to below 0.4), high range (0.4 or more)

GGGAAGGCGAAAGACC [IAV_invivo_PA_3_Motif_21+IAV_invivo_PA_3_Motif_21]	high range

Which category fits this record: UCCUCCCAGUGGCUGGUGGA [IAV_invivo_PB2_1_Motif_9+IAV_invivo_PB2_1_Motif_9] mid range

Which category fits this record: AGUAUUUUAAUCAUAGAUUGUAUUUAGUUAGUUUUUAAUACU [hsa-mir-4637] low range

Which category fits this record: UAGAGUAGGAGAGCCCACUGA [hsa-mir-6846] high range

###

# System: TO-3-N3 (biotin conjugate)
# assay_text: pull-down binding Z-score (relative to library population); higher = stronger binding
# conditions_used: RNA library: Library-2
Quick reference for pull-down binding Z-score among some sequences
Keep the answer to the number alone.

GUGUGGAGAGAGCACUGAGCCUGCCCACC [hsa-mir-6849]	-0.134
UCUGCUCGCAUAGUGUAUACAGCUUGCUCUCAUGCCGCUGUUGAUGCACUAUGUGAGAAGGCAUUAAAAUAUUUGCCUAUAGA	-0.598
UCCUUUGACAUGAGUAAUGAAGGAUCUUAUUUCUUCGGAGACAAUGCAGAGGA [IAV_invivo_NP_5_Motif_26+IAV_invivo_NP_5_Motif_26]	-0.638

Continue with the next sequence.
Value of measured pull-down binding Z-score for the entry UGGGCCAAG [hsa-mir-3620] : 0.746

###

# Tested on: TO-3-N3-2 (biotin conjugate)
# assay_text: pull-down binding Z-score (relative to library population); higher = stronger binding
# conditions_used: RNA library: Library-2
The threshold is inclusive: pull-down binding Z-score of exactly -0.2 counts as Y; values below receive N.

Answered cases to consult:
CAACUGAAAUCUAUCAGGCCGGUAGCACACCUUGUAAUGGUGUUGAAGGUUUUAAUUG [SHAPE_invivo_SARS-CoV-2_Motif_433]	N
GCAGAUUCUCUCUCUC [hsa-mir-4279]	Y
GGGAAGGCGAAAGACC [IAV_invivo_PA_3_Motif_21+IAV_invivo_PA_3_Motif_21]	Y
UUAAGGUGUUUACAACAGUAGACAACAUUAA [DMSMaPseq_invitro_SARS-CoV-2_Motif_93]	N
GCGCAGCCAGAAACUGGCCGCGC [mismatch-AC]	N
UGUGUGCUGAGAAAAUUCACACA [hsa-mir-5580]	Y
UCCCUUCCUGGACACACAGGAGGAGA [hsa-mir-5680]	N
AACAUACAUUUGUCUUGGUGUGUU [hsa-mir-4684]	N

Given the entry AGAUCCUGUCUUUCGUAAUCAGCAGCU [hsa-mir-222] , answer whether its pull-down binding Z-score meets or surpasses -0.2. Y

Given the entry CCAGUGCUGGGCUCAGACCCUGG [hsa-mir-150] , answer whether its pull-down binding Z-score meets or surpasses -0.2. N

Given the entry GGGUUGCAUCCUAAGCUGUGCUGGAGCUUCCC [hsa-mir-623] , answer whether its pull-down binding Z-score meets or surpasses -0.2. Y

Given the entry GCCGGGGCCUGGCGCUCCUCUACCUUGUCAGGUGACCCAGC [hsa-mir-4274] , answer whether its pull-down binding Z-score meets or surpasses -0.2. Y

###

Quick reference for pull-down binding Z-score among some sequences
# Tested on: TO-N3-2 (biotin conjugate)
# assay_text: pull-down binding Z-score (relative to library population); higher = stronger binding
# conditions_used: RNA library: Library-2
Keep the answer to the number alone.

Below, each entry is followed by its recorded pull-down binding Z-score result.
CUGGGGAGCCGGACAGCUCCCUUCCCAG [hsa-mir-3155a]	-0.0145
UAGGCUGUUUCCAUCUGUGAGGCCUA [hsa-mir-26a-2]	-0.00853
ACAGGGACUACUCCCACCCAAGAAUAGCAUAGAUGCCUUCAAACUCAACAUUAAAUUGUUGGGUGUUGGUGGCAAACCUUGUAUCAAAGUAGCCACUGU	-0.183
UCUUCCCGGAGUCGGGAAAA [hsa-mir-320a]	-0.901
GGCGCUGUCUUGAGACAUUCGCGCAGUGCA [hsa-mir-3177]	2.23

Record GGGGAUCUAUCAGAUUCUGGCGAUCUACUCAACUGUCGCCAGUUCACUGGUGCUUUUGGUCUCC [IAV_invivo_HA_4_Motif_19+IAV_invivo_HA_4_Motif_19] has TO-N3-2 (biotin conjugate) pull-down binding Z-score equal to 0.69

Record UGUUUUCUACAAAGAAAACA [SHAPE_invivo_SARS-CoV-2_Motif_122] has TO-N3-2 (biotin conjugate) pull-down binding Z-score equal to -1.85

###

# System: G-clamp-N3 (biotin conjugate)
# assay_text: pull-down binding Z-score (relative to library population); higher = stronger binding
# conditions_used: RNA library: Library-1 (pre-miRNA loops + repeats)
The threshold is inclusive: pull-down binding Z-score of exactly 0.3 counts as y; values below receive n.

Answered cases to consult:
AAAGCCAGGGACCCUGAGAGGCUUU [hsa-mir-6885]	y
GACACUUUCACUAUAUAUAGUGGC [hsa-mir-3156-3]	n
AUGGAUAUGGGAACUGUGAUGUCCA [hsa-mir-4768]	y
CAGACCAUGCCACAUCCGUCUG [hsa-mir-7152]	n
GUGUAGAGGCGGAGCACAG [hsa-mir-1471]	y
CUGUUUCUGGUGAAAUAUUCAAACAG [hsa-mir-4433a]	n

Given the entry AAGUAGUUGGCGUCUUCAGAGACACUU [hsa-mir-643] , answer whether its pull-down binding Z-score meets or surpasses 0.3. n

###

# Tested on: TO-N3 (biotin conjugate)
# assay_text: pull-down binding Z-score (relative to library population); higher = stronger binding
# conditions_used: RNA library: Library-2
measured_attribute: pull-down binding Z-score
Keep the answer to the number alone.

Value of measured pull-down binding Z-score for the entry UGGAGGUGAUGGAUGUUUUCCUCCG [hsa-mir-671] : -0.717

Value of measured pull-down binding Z-score for the entry CCAUUCUUCGUAAGGGUGG [DMSMaPseq_invitro_SARS-CoV-2_Motif_28] : -0.198

Value of measured pull-down binding Z-score for the entry UGGCAUUAAUGCUUCAGUUGUAAACAUUCAAAAAGAAAUUGACCGCCUCAAUGAGGUUGCCA : -1.1

Value of measured pull-down binding Z-score for the entry CUGUUGAAAGAAAAG [hsa-mir-526a-2] : 1.01

Value of measured pull-down binding Z-score for the entry AAGUAAUUGUUUCUAAUGUACU [hsa-mir-412] : 0.00941

###

# Test system: TO-3-N3 (biotin conjugate)
# assay_text: pull-down binding Z-score (relative to library population); higher = stronger binding
# conditions_used: RNA library: Library-2
measured_attribute: pull-down binding Z-score
Keep the answer to the number alone.

ACCACCAAUUAAAGAUUUUGGUGGU [SHAPE_invitro_SARS-CoV-2_Motif_434]	0.206
ACCUUUAGUACCUUUCUGGAUAACAAUUGCUUAUAUCAUUUGUAUUUCCACAAAGCAUUUCUAUUGGU	0.707
UUUGUGUAAGGAAUUUUGUGGUCACAAA [hsa-mir-10a]	-1.06
CGGAUCUCGAGGGUGCUUAUUGUUCGGUCCG [hsa-mir-615]	0.418
ACUACUGUGCUCUGAGAAGCAGU [hsa-mir-301b]	0.599

Value of measured pull-down binding Z-score for the entry UCCUAGGCGGGUCGCUGCGGUACCUCCCUCCUGUCUGUGGCGGUGGGAUCCCGUGGCCGUGUUUUCCUGGUG [hsa-mir-663b] : -0.114

Value of measured pull-down binding Z-score for the entry GCCAUCUGGUUGUGACAUCACUGAUGGC [hsa-mir-7155] : 1.09

Value of measured pull-down binding Z-score for the entry GGUUUCUUAAAAUGGAAUCU [hsa-mir-1255b-1] : -0.382
